- assayRemarks: self-splicing fitness, log relative to wild type (ln ratio); higher = more splicing; Tetrahymena group I intron in knt gene, E. coli kanamycin selection, DiMSum; sequences stand for … in CUCUCU…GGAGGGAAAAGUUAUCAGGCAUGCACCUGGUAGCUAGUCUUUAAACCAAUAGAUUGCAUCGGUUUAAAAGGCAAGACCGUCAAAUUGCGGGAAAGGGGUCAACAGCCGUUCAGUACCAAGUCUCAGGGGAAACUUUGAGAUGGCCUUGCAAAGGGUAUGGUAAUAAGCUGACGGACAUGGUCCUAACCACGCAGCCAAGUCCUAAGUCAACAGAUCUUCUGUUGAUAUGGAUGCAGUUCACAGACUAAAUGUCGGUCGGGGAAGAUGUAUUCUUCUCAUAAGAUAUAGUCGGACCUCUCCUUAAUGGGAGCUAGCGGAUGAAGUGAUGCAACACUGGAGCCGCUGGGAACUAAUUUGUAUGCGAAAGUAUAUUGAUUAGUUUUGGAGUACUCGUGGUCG;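 also: selection with 25 µg/mL kanamycin versus none on LB agar overnight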
- runConditions: 30 °C
Reported self-splicing fitness (ln) values follow for various sequences
valueType: self-splicing fitness (ln)

    macromoleculesequence  observedresult
 0   UAUAAGCAAUAUUACGGCCU           -0.92
 1   UUAAAGCAAUAUUACGCAGG          -0.165
 2   UAGAAGCAAUAUUACGUAGA            -2.4
 3   AAGUAGCAAUAUUACGUCGA           -1.34
 4   CAUAAGCAAUAUUACGGGGA           -2.02
 5   GGUGAGCAAUAUUACGACUU          -0.531
 6   UGCGAGCAAUAUUACGAAGA           -3.24
 7   AGCCAGCAAUAUUACGCAUU           -1.65
 8   AAAAAGCAAUAUUACGACUA         -0.0366
 9   GUCGAGCAAUAUUACGCGAC           -2.57
10   CACGAGCAAUAUUACGUGAG           -4.08
11   AUUGAGCAAUAUUACGCAGC           -1.85
12   UAUUAGCAAUAUUACGCGGA            -2.1
13   CAUGAGCAAUAUUACGCGAA           -3.03
14   UUUAAGCAAUAUUACGGGCA           -1.05
15   UAAUAGCAAUAUUACGUGAG           -1.76
16   GCCGAGCAAUAUUACGCGCG           -2.53
17   UGCCAGCAAUAUUACGGCGC            -3.8
18   GCUGAGCAAUAUUACGGUCG           -2.59
19   GACAAGCAAUAUUACGAAUU           -1.56
20   UAACAGCAAUAUUACGGGCG          -0.476
21   GGUUAGCAAUAUUACGUCCG          -0.773
22   GAAAAGCAAUAUUACGGUUA          -0.324
23   UAAGAGCAAUAUUACGCUUC           -3.71
24   CCGAAGCAAUAUUACGAAUC           -4.12
25   CCGUAGCAAUAUUACGGUUC           -2.21
26   UAGCAGCAAUAUUACGGAUG           -1.19
27   UUACAGCAAUAUUACGUGGG           -2.85
28   CCUUAGCAAUAUUACGGAUU           -3.31
29   GACUAGCAAUAUUACGCGCC           -2.11
30   CCUGAGCAAUAUUACGUAUG           -2.38
31   CGACAGCAAUAUUACGUGUG            -2.2
32   ACCUAGCAAUAUUACGUGUU           -3.18
33   CUACAGCAAUAUUACGAUCU           -4.26
34   AUUAAGCAAUAUUACGUUCU          -0.566
35   GACGAGCAAUAUUACGCACG           -3.63
36   ACUUAGCAAUAUUACGUCAU            -3.1
